- Measurement notes: chemical genetic growth profiling, strain panel (AID 1159580);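 note: tested at 20 µM; growth read once vehicle control cultures reached saturation at 30 °C; 1 = growth at the plate median or of vehicle wells; lower values mean less growth of the strain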
- Stated conditions: S. cerevisiae deletion strains, growth OD, locus YNL248C, strain rpa49, hits give low values
About 2,000 (36%) of roughly 5,500 compounds were called active. Another 18% or so got no clear call; they are omitted. The list shows a part of the results.
# normalized growth values compiled below
Give the figure by itself; no unit, no explanation.

Solved entries:
1. O=c1cc(-c2ccccc2)oc2cc(O)c(O)cc12	1.02
2. Cc1cc(=O)oc2c(O)c(O)ccc12	1.01
3. C[C@H](N)[C@H](O)c1cccc(O)c1	1.01
4. CN(C)CCOC(=O)C(c1ccccc1)C1(O)CCCC1 (configuration not stated)	1.03
5. CC(=O)Nc1nnc(S(N)(=O)=O)s1	0.971
6. O=c1cc(-c2cc(O)c(O)c(O)c2)oc2cc(O)cc(O)c12	1.02

Then this compound:
Incoming: Which value of normalized growth has been reported for c1ccc2c(c1)CN1CCCC1=N2 in the records?
Outgoing: 1.01
